System: HCT-116
Experiment: Antiproliferative activity against human HCT116 cells after 48 hrs by Hoechst 33342 staining-based assay
Assay type: functional, cell-based
Settings: HCT-116, 48 h
// reported IC50 per item
REPORTED_METRIC: IC50

1. FC(F)(F)c1cccc(-c2ccc(Oc3ccccc3)nn2)c1 ... > 25 µM
2. CCOC(=O)c1ccc(-c2ccc(N(C)C)nn2)cc1 ... > 25 µM
3. Cc1cccc(-c2ccc(Oc3ccc(F)cc3)nn2)c1 ... > 25 µM
4. Cc1ccc(-c2ccc(N3CCN(c4ccccc4)CC3)nn2)cc1 ... > 25 µM
5. CCN(CC)c1ccc(-c2cccc(Cl)c2)nn1 ... > 25 µM
6. CCOC(=O)c1ccc(-c2ccc(N(CC)CC)nn2)cc1 ... 0.5 µM

###

Tested on: HCT-116
Experiment: Antiproliferative activity against human HCT116 cells after 48 hrs by Hoechst 33342 staining-based assay
Format: functional, cell-based
Settings: HCT-116, 48 h
REPORTED_METRIC: IC50 (nM)

1. COc1cccc2c1C(=O)c1c(O)c3c(c(O)c1C2=O)C[C@@](O)(C(=O)CO)C[C@@H]3O[C@H]1C[C@H](N)[C@H](O)[C@H](C)O1 ... 50
2. Oc1cccc(-c2nc(N3CCOCC3)c3oc4ncccc4c3n2)c1 ... 3000

###

Recorded Activity for the following molecules
Test system: Fibroblast
Assay: Antiproliferative activity against human fibroblast cells at 0.1 to 25 uM after 48 hrs by Hoechst 33342 staining-based assay relative to control
Format: cell-based
REPORTED_METRIC: Activity (%)

1. COc1cccc2c1C(=O)c1c(O)c3c(c(O)c1C2=O)C[C@@](O)(C(=O)CO)C[C@@H]3O[C@H]1C[C@H](N)[C@H](O)[C@H](C)O1 ... 40
2. CCN(CC)c1ccc(-c2ccc(C(=O)OC)cc2)nn1 ... 40
3. CC(=O)O[C@H]1C(=O)[C@@]2(C)[C@H]([C@H](OC(=O)c3ccccc3)[C@]3(O)C[C@H](OC(=O)[C@H](O)[C@@H](NC(=O)c4ccccc4)c4ccccc4)C(C)=C1C3(C)C)[C@]1(OC(C)=O)CO[C@@H]1C[C@@H]2O ... 30
4. CC[C@H](CO)Nc1nc(NCc2ccccc2)c2ncn(C(C)C)c2n1 ... 40
5. CCOC(=O)c1ccc(-c2ccc(N(CC)CC)nn2)cc1 ... 40

###

Some compounds, each annotated with its measured Activity.
System: HaCaT
Test: Antiproliferative activity against human HaCaT cells at 0.1 to 25 uM after 48 hrs by Hoechst 33342 staining-based assay relative to control
Format: cell-based
REPORTED_METRIC: Activity (%)

1. CCN(CC)c1ccc(-c2ccc(C(=O)OC)cc2)nn1 ... 85
2. CCOC(=O)c1ccc(-c2ccc(N(CC)CC)nn2)cc1 ... 80
3. Oc1cccc(-c2nc(N3CCOCC3)c3oc4ncccc4c3n2)c1 ... 70
4. COc1cccc2c1C(=O)c1c(O)c3c(c(O)c1C2=O)C[C@@](O)(C(=O)CO)C[C@@H]3O[C@H]1C[C@H](N)[C@H](O)[C@H](C)O1 ... 70
5. CC[C@H](CO)Nc1nc(NCc2ccccc2)c2ncn(C(C)C)c2n1 ... 80
6. CCN(CC)c1ccc(-c2ccc(C(C)=O)cc2)nn1 ... 80
7. CC(=O)O[C@H]1C(=O)[C@@]2(C)[C@H]([C@H](OC(=O)c3ccccc3)[C@]3(O)C[C@H](OC(=O)[C@H](O)[C@@H](NC(=O)c4ccccc4)c4ccccc4)C(C)=C1C3(C)C)[C@]1(OC(C)=O)CO[C@@H]1C[C@@H]2O ... 70

The reported measurements were obtained from ChEMBL document CHEMBL4422646.
